Each recorded value in this set is attributed to PubChem BioAssay (NCI).

Collected GI50 values appear next to each entry.
# Test system: HOP-92 NSCLC
# experiment: NCI tumour cell line growth inhibition, 48 h
readoutKind: GI50

> print(dat)
                                    compound  endpointvalue
 1  S=C(N/N=C/c1cc(Cl)cc(Cl)c1)NC12CC3CC(CC(C3)C1)C2        2500 nM
 2  COc1cc(-c2csc(NC(=O)c3cc(C(F)(F)F)cc(C(F)(F)F)c3)n2)cc(OC)c1OC         848 nM
 3  O=C(O)c1cc[c]([Hg][S]c2ncnc3nc[nH]c23)cc1        2210 nM
 4    O=C1/C(=C/c2ccc(Cl)cc2)CCCc2ccc(F)cc21        9300 nM
 5  Nc1cc(N)c2nc(-c3ccccc3)c(Oc3ccc(F)cc3)nc2c1       12200 nM
 6  Fc1cccc(COc2ccc(Nc3ncnc4sc(-c5ccco5)cc34)cc2Cl)c1     > 25000 nM
 7  C[C@]12CC[C@@H]3c4ccc(O)c([N+](=O)[O-])c4CC[C@H]3[C@@H]1CC[C@@H]2NS(=O)(=O)c1ccc(C(F)(F)F)cc1        1120 nM
 8  Cc1ccc(C(=O)/C(=C/c2ccc([N+](=O)[O-])cc2)S(=O)Cc2ccccc2)cc1 (configuration not stated)        1410 nM
 9  COc1cc(C2c3cc4c(cc3[C@@H](Nc3ccc(N(C)C)cc3)[C@H]3COC(=O)C23)OCO4)cc(OC)c1O (some centres not stated)         807 nM
10  NS(=O)(=O)c1ccc(N2Cc3cc(Cl)ccc3OC3=C2C(=O)N(CC2CCCCC2)C3=O)cc1        1310 nM
11  Cc1cccc(NC(=O)c2sc3nc4c(cc3c2N)CCCC4)c1C         700 nM
12  COc1ccc(-c2cc(-c3ccc(Cl)cc3)c(C#N)c(=O)n2CCCCC(=O)Nc2ccccc2N)cc1        2590 nM
